- SYSTEM UNDER TEST: HLA-A*02:12
- TEST: IEDB peptide-MHC binding, purified MHC/competitive/fluorescence; filed as Kd, often an IC50 or EC50 that approximates it; bounds were set here for any values at or beyond the usual limits of such assays
- PROTOCOL CONDITIONS: source organism: Homo sapiens
VALUE KIND: pKd
Scale for pKd: -log10 of concentration given in mol/L; no unit attached.

Lookup: Please provide the recorded pKd for `SQLPPACPV` , tested on HLA-A*02:12.
Found: 6.77

---

Recorded Kd, one value per entry.
- SYSTEM UNDER TEST: HLA-B*15:01
- TEST: IEDB peptide-MHC binding, purified MHC/competitive/fluorescence; filed as Kd, often an IC50 or EC50 that approximates it; bounds were set here for any values at or beyond the usual limits of such assays
- PROTOCOL CONDITIONS: source organism: Zaire ebolavirus

{"SEQUENCE ENTRY": "APFARLLNL", "SYSTEM UNDER TEST": "HLA-B*15:01", "Kd": "≥ 20 µM"}

Then there is this sequence:
Lookup: Consider the sequence shown here: `SLTDRELLL` What is its recorded Kd?
Found: ≥ 20 µM

---

- SYSTEM UNDER TEST: HLA-B*39:01
- TEST: IEDB peptide-MHC binding, purified MHC/competitive/fluorescence; filed as Kd, often an IC50 or EC50 that approximates it; bounds were set here for any values at or beyond the usual limits of such assays
- PROTOCOL CONDITIONS: source organism: Mycobacterium tuberculosis variant bovis BCG str. Pasteur 1173P2
VALUE KIND: Kd

Lookup: Request the reported Kd associated with `RPPMVTSGL`
Found: ≥ 20 µM

---

- SYSTEM UNDER TEST: HLA-A*69:01
- TEST: IEDB peptide-MHC binding, purified MHC/direct/fluorescence; filed as Kd, often an IC50 or EC50 that approximates it; bounds were set here for any values at or beyond the usual limits of such assays
- PROTOCOL CONDITIONS: source organism: Bacillus licheniformis
VALUE KIND: pKd
// field semantics: pKd = negative decimal log of concentration (mol/L)

Lookup: I'm curious: which pKd was measured for `RLIWSHHHI` tested on HLA-A*69:01?
Found: 5.90

---

- SYSTEM UNDER TEST: HLA-B*15:01
- TEST: IEDB peptide-MHC binding, purified MHC/direct/fluorescence; filed as Kd, often an IC50 or EC50 that approximates it; bounds were set here for any values at or beyond the usual limits of such assays
- PROTOCOL CONDITIONS: source organism: Escherichia coli O157:H7
pKd: −log10 of the molar value.
VALUE KIND: pKd

Lookup: Query: pKd; subject: `YECTSRHFT`
Found: ≤ 4.70

---

- SYSTEM UNDER TEST: HLA-B*39:01
- TEST: IEDB peptide-MHC binding, purified MHC/direct/fluorescence; filed as Kd, often an IC50 or EC50 that approximates it; bounds were set here for any values at or beyond the usual limits of such assays
- PROTOCOL CONDITIONS: source organism: Zaire ebolavirus
VALUE KIND: Kd (nM)
Provide only the numeric value, understood in nM.

Lookup: Data request, read-out Kd, for `GHMMVIFRL`
Found: 86.7

---

- SYSTEM UNDER TEST: HLA-B*40:13
- TEST: IEDB peptide-MHC binding, purified MHC/competitive/fluorescence; filed as Kd, often an IC50 or EC50 that approximates it; bounds were set here for any values at or beyond the usual limits of such assays
- PROTOCOL CONDITIONS: source organism: Escherichia coli O157:H7 str. EDL933
VALUE KIND: Kd

Lookup: Any idea what Kd was measured for `RMMGVKYLM` ?
Found: 3.2 nM

---

- SYSTEM UNDER TEST: HLA-B*83:01
- TEST: IEDB peptide-MHC binding, purified MHC/competitive/fluorescence; filed as Kd, often an IC50 or EC50 that approximates it; bounds were set here for any values at or beyond the usual limits of such assays
- PROTOCOL CONDITIONS: source organism: Vaccinia virus WR
pKd: −log10 of the molar value.
VALUE KIND: pKd

Lookup: Which value of pKd has been reported for `LMYPTTLLK` in the records?
Found: ≤ 5.30

---

- SYSTEM UNDER TEST: HLA-B*18:01
- TEST: IEDB peptide-MHC binding, purified MHC/direct/fluorescence; filed as Kd, often an IC50 or EC50 that approximates it; bounds were set here for any values at or beyond the usual limits of such assays
- PROTOCOL CONDITIONS: source organism: Mycobacterium tuberculosis
VALUE KIND: Kd (µM)
All answers are understood in µM, so give the number only.

Lookup: Which Kd value is on record for `MPRLSRNAA` ?
Found: 8.28

---

- SYSTEM UNDER TEST: HLA-B*40:01
- TEST: IEDB peptide-MHC binding, purified MHC/competitive/radioactivity; filed as Kd, often an IC50 or EC50 that approximates it; bounds were set here for any values at or beyond the usual limits of such assays
- PROTOCOL CONDITIONS: source organism: Dengue virus 2 Peru/IQT2913/1996
VALUE KIND: pKd
Formally, pKd is defined as -log10 of the concentration c, with c in mol/L.

Lookup: What value of pKd has been reported for the following sequence? `VESWEEIPYL`
Found: 7.28

---

- SYSTEM UNDER TEST: HLA-A*02:01
- TEST: IEDB peptide-MHC binding, purified MHC/competitive/fluorescence; filed as Kd, often an IC50 or EC50 that approximates it; bounds were set here for any values at or beyond the usual limits of such assays
- PROTOCOL CONDITIONS: source organism: Macaca mulatta
pKd: −log10 of the molar value.
VALUE KIND: pKd

Lookup: Consider the sequence shown here: `SAEVVTLWY` What is its recorded pKd?
Found: ≤ 4.70

---

- SYSTEM UNDER TEST: HLA-A*02:01
- TEST: IEDB peptide-MHC binding, purified MHC/competitive/fluorescence; bounds were set here for any values at or beyond the usual limits of such assays
- PROTOCOL CONDITIONS: source organism: Sudan ebolavirus
Parameter: pIC50. Scope: all listed entries.
pIC50 is a log-scale quantity: -log10 of the concentration expressed in molar.

{"SEQUENCE ENTRY": "ILGPDCCIE", "SYSTEM UNDER TEST": "HLA-A*02:01", "pIC50": 4.55}
{"SEQUENCE ENTRY": "QLVCKDHLA", "SYSTEM UNDER TEST": "HLA-A*02:01", "pIC50": 4.71}
{"SEQUENCE ENTRY": "TTHTSGPSV", "SYSTEM UNDER TEST": "HLA-A*02:01", "pIC50": 4.75}
{"SEQUENCE ENTRY": "DFLLRRWGG", "SYSTEM UNDER TEST": "HLA-A*02:01", "pIC50": 4.25}
{"SEQUENCE ENTRY": "FLQSPPIRE", "SYSTEM UNDER TEST": "HLA-A*02:01", "pIC50": 4.42}

Lookup: Give pIC50 (HLA-A*02:01) of the following sequence: `SLLQLPRDK`
Found: 4.78

Lookup: Continue with `LVCGLRQLA`
Found: 5.12

Lookup: Could you do the same for `ILFQKAFSM` , please?
Found: 6.20

Lookup: Would you mind doing `TTQALQLFL` as well?
Found: 4.98

---

- SYSTEM UNDER TEST: HLA-A*32:07
- TEST: IEDB peptide-MHC binding, purified MHC/competitive/fluorescence; filed as Kd, often an IC50 or EC50 that approximates it; bounds were set here for any values at or beyond the usual limits of such assays
- PROTOCOL CONDITIONS: source organism: Yersinia pestis Nepal516
VALUE KIND: Kd (nM)
Unit nM implied. Number only.

Lookup: For the sequence `RAMRMVYYL` , what Kd is on record?
Found: 77.6

---

- SYSTEM UNDER TEST: HLA-A*68:02
- TEST: IEDB peptide-MHC binding, purified MHC/competitive/radioactivity; filed as Kd, often an IC50 or EC50 that approximates it; bounds were set here for any values at or beyond the usual limits of such assays
- PROTOCOL CONDITIONS: source organism: Dengue virus 3 Martinique/1243/1999
Below, each entry is listed alongside its reported pKd.
Please report pKd as the negative decimal logarithm of the molar concentration, giving only the number.

{"SEQUENCE ENTRY": "TSMSFSCIAI", "pKd": 8.91}
{"SEQUENCE ENTRY": "LTMKNKAWMV", "pKd": 7.78}

Lookup: Hello, I am looking for reported pKd with HLA-A*68:02 for `TATLILAGV` . Could you help?
Found: 8.97

---

- SYSTEM UNDER TEST: HLA-A*01:01
- TEST: IEDB peptide-MHC binding, purified MHC/direct/fluorescence; filed as Kd, often an IC50 or EC50 that approximates it; bounds were set here for any values at or beyond the usual limits of such assays
- PROTOCOL CONDITIONS: source organism: Mus musculus
VALUE KIND: pKd
// pKd: -log10(molar conc.)

Lookup: Which measured pKd value corresponds to `WSTIWRQLY` ?
Found: 8.00
